assay: yeast display, Sf9 membrane polyspecificity reagent, FACS + sequencing; frameworks hold sequencing errors
READOUT KIND: polyreactivity (PSR sort gate)

Illustrative cases are given below, each with its answer.
QVQLVESGGGLVQAGGSLRLSCAASGSTFDIYVMGWYRQAPGKERELVAAISRVGNTSYADSVKGRFTISRDNAKNTVYLQMNRLNPEDTAVYYCAADRADFFVIRTIDPYDYWGQGTQVTVSS    low polyreactivity
QVQLVESGGGLVQAGGSLRLSCAASGFTFPYYAMGWYRQAPGKERELVATIRSGGSTYYADSVKGRFTISRDNAKNTVYLQMNSLKPEDTAVYYCAKYQVLYSYDKYGYWGQGTQVTVSS    low polyreactivity
QVQLVESGGGLVQAGGSLRLSCAASGRIFVYYAMGWYRQAPGKERELVASISYSGASTYYADSVKGRFTISRDNAKNTVYLQMNSLKPEDTAVYYCNTDGDDFFHVIYDYWGQGTQVTVSS    low polyreactivity
QVQLVESGGGLVQAGGSLRLSCAASGRIFSINAMGWYRQAPGKEREFVATISDRGSTTSYADSVKGRFTISGDNAKNTVDLQMNSLKPDDTAVYYCAARSYYRYDYWGQGTQVTVSS    high polyreactivity
QVQLVESGGGLVKAGGSLRLSCAASGSTFERYAMGWYRQAPGKERELVAAINWSGGGTYYADSVKGRFTISRDNAKNTVYFQMNSLKPEDTAVYYCAADSGTVVFSLWWYEYYYWGQGTQVTVSS    low polyreactivity
QVQLVESGGVLVQAGGSLRLSCAASGFTFLAYAMGWYRQAPGKERELVAAINSSDGTTHYADSVKGRFTISRDNAKITVYLQMNSLKPEDTAVYYCAVSQVRTGEGYHYWGQGTQVTVSS    low polyreactivity
QVHLVESGGGLVQAGGSLRLSCAASGRNFGYNAMGWYRQAPRKEREFVASISSSGGLTYYSDSVKGRFTISRDNAKNTVYLQMNSLKPEDSAFYDCARQGYYLYSKYDYWGQGTQVTVSS    high polyreactivity
QVQLVESGGGLVQAGGSLRLSCAASGRISQGYAMGWYRQAPGKERELVAVISRSGGSTYYADSVKGRFTISRDNAKNTVYLQMNSVKPEDTAVYYCASRYYWRGYYWGQGTQVTVSS    high polyreactivity
QDQLVESGGGLVQAGGTLRLSGAASGRTFDRNAMGWYRQAPGKAWEVVAGITRSGDSTYADSVKGRFTISRDNAKNTVYLQMNSLKPEDTAVYYCNKEGTVGGTRGYWGQGTQVTVSS    low polyreactivity
QVQLVESGGGLVQAGGSLRLICAASGSTLVANAMGGYRQAPGKERELVAAISSGGITYYADSVKGRFTISRDNAKNTVYLQMNSLKPEDTAVYYCAKRGQGFQFGRDYWGQGTQVTVSS    low polyreactivity

Record request: polyreactivity (PSR sort gate) value, item QVQLVESGGGLVQAGGSLRLSCAASGRTFQVYTMGWYRQAPGKERELVAAISRSGGSTYYADSVKGRFTISRDNAKNTVYLQMNSLKPEDTAVYYCAAVPGWLTSRYYYWGQGTQVTVSS
high polyreactivity

* * *

experiment: yeast display, Sf9 membrane polyspecificity reagent, FACS + sequencing; frameworks hold sequencing errors
READOUT KIND: polyreactivity (PSR sort gate)

Worked cases, polyreactivity (PSR sort gate) given:
QVQLVESGGGLVQAGGSLRLSCAASGRTFGYYTMGWYRQSPGKERELVATISSDGTTNYADSVKGRFTISRDNAKNTVYLQMNSLKPEDTAVYYCNADFRLQYYYRIYDYWGQGTQVTVSS    low polyreactivity
QVQLVESGGGVVQAGGSLRLSCAASGRIFGGYAMGWYRQAPGKERELVAAISGSGGRTDYADSVKGRFTISRDNAKNTVYLQMNSLKPDDTAVYYCNKGYVYGHEYWGQGTQVTVSS    high polyreactivity
QDQLVESGGGLVQAGGSLRLSGAASGSTFGGNAMGWYRQAPGKERELVAAISSSGGSTYYADSVKGRFTISRDNAKYSVYLQMNRLKPEDTAVYYCAAMYHWTYDYWGQGTQVTVSS    low polyreactivity
QVQLVESGGGLVQAGGSLRLSCAASGFIIYRNARGWYRQAPGKERELVAGISSGGSTNYADSVKGRFTISRDNAKNTVYLQMTSLKPEDTADYYCATRVYALWFGRYDYWGQGTQVTVSS    high polyreactivity

Item under review: KVQIVESVGGLVQAGASLRLSCAASGSIFRYYPMGWYRQAPGKERELDAAISSSGTTYYADSVKGRFTISRDNAKNTVYLQMNRLKPEDCAVYYCAAVWTYWYYGDDYWGLGTQVTVSS . Reported polyreactivity (PSR sort gate)?
low polyreactivity

* * *

assay: yeast display, Sf9 membrane polyspecificity reagent, FACS + sequencing; frameworks hold sequencing errors
READOUT KIND: polyreactivity (PSR sort gate)

Solved entries (count: 4):
QVQLVESGGGFGQAGGSLRLSCAASGLIFRWYAMGWYRQAPGKERELVAAISWSGASTYYADSVKGRFTISRDNAKNTVYLQMNSLKPEDTAVYYCAADSAYWTYEYWGQGTQVTVSS    high polyreactivity
QVQLVESGGCLVQAGGSLRLSCAASGIIFYYYAMGWSRQAPGKEREFVAGIRWSSGSTYYADSVKGRFTISRDNAKNTVYLQMNSLKPEDTAVYYCAAAYLSWYGGYYYWGQGSQVTVSS    low polyreactivity
QVQLVESGGGLVQAGGSLRLSCPASGFIYWSYAMGWYRQAPGKERELVADIDSDASTDYADSVKGRFTITRDNAKNTVYLQMNSLKPEDTAVYYCAALASIQQYPGNFYYWGQGTQVTVSS    high polyreactivity
QVQLVESGGGLVQAGGSLRLSCAASGRIFAKNVMGWYRQGPGKEWELVAAISRSGGSTYYADSVKGRFSISRDNAKNTVYLQMNSLKPEDTAVSYCGAYYGPDSARYYGGYEYWGQGTQVTVSS    high polyreactivity

Any idea what polyreactivity (PSR sort gate) was measured for QVQLVESGGVLVQAGGSLRLSCAASGFTFGPYAMGWYRPAPGKERELVATIRSGDSTNYADSVKGRFTISRDNAKNTVYLQMNSLKPEDTAVYYCARDARASARRKRYDYGGQGTQVTVSS ?
low polyreactivity

* * *

experiment: yeast display, Sf9 membrane polyspecificity reagent, FACS + sequencing; frameworks hold sequencing errors
READOUT KIND: polyreactivity (PSR sort gate)

Would you please look over these solved cases?
QVQLVESGVGLVQAGGSLRLSCAASGFTFSYYAMGWYRKAPGKERELVAGITTGGGTNYADSVKGRFTISRDNAKNTVYLQMNSLKPEDPAVYYCNAVGAHWVSYSSPVRFDYWGQGTQVTVSS    low polyreactivity
QVQLVESGRGLVQAGGSLRLSCAASGRIFGRNTIGWYRQAPRKEREMVAVISFRGGSTYADSVKGRFTISRDNAKNTVYLQMNSLKPEDTAVYYCARTAYSTRPYRFDYWGQGTQVTVSS    high polyreactivity
QVQLVESGGGLVQAGGSLRLSCAASGRIFRINAMGWYRQAPGKERELVATITSGGRTKYADSVKGRFTISRDNAKNTVYLQMNSLKPEDTAVYYCAADWRVRVRQHIPDKYDYWGQGTQVTVSS    low polyreactivity
QVQLEESGGGLVQAGGSLRLSCAASGNILWKNAMGWYRQAPGKERELVAAITRSGGSTYYADSVKGRFTISRDNAKNTVYLQMNSLKPEDTAVYYCATRNLGYRPYRYDYWGQGTQVTVSS    high polyreactivity

Pending sequence:
// lookup polyreactivity (PSR sort gate) for QVQLVESGGGLVKAGGSLRLSCAASGLNFNRYTMGWNRQAPGKERELVAVIDCSGGSTRYADSVKGRFTISRDNAKNTVDLQMNSLKPEDTAVYYCDYYWAQGTQVTVSS
low polyreactivity

* * *

assay: yeast display, Sf9 membrane polyspecificity reagent, FACS + sequencing; frameworks hold sequencing errors
READOUT KIND: polyreactivity (PSR sort gate)

Look over these answered cases.
QVQLVESGGGLVQAGGSLRLSCAASGRIFSFNARGWYRPAPGKETELVAGITYGGNTYYADSVKGRFTISRDNAKNTVYLQMNSLKPEDTAVYYCAADGVYDQNLYGFWGQGTQVTVSS    low polyreactivity
QVKLVESGGGLVQAGGSLRLSCADSGSIFVPNTRGWYRQAPGKERELVAAITAGGSTDYADSVKGRFTISRDNAKNTVYLQMNSLKPEDTAVYYCNADVYSWVSGKEGDYWGQGTQVTVTS    low polyreactivity
QVQLVESGGGLVQAGGSLRLSCAASGSIFPRYAMGWYRQAPGKERELVAGITSGGITYYADSVKGRFTISRDNAKNTVYLQLNSLKPEDTAVYYCAAVYYLVPGNYWGQGTQVTVSS    high polyreactivity
QVQLVESGGGLVQAGGSLRLSCAASGSTFYGNAMGWYRQAPGKERELVGAIRWRGGRTYYADSVKGRFTISRDNANNTVYLQMNSLKPEDTAVYYCNALPGVSHTQYDRVGYWGQGTQVTVSS    high polyreactivity
QVQLVESGGGLVQAGGSLRLSCAASGSIFYPYTMGWYRQAPGKEREFVAAITGGGGRTYYADSVKGRFTISRDNAKNTVYLQMNSLKPEDTAVYYCATDTYDVNVWELGMDYWGQGTQVTVSS    low polyreactivity
QVQLVESGGGLVQAGGSLRLSCAASGSIFKPYAMGWYRQAPGKERELVAVISSGGSTNYADSVKGRFTISRDNAKNTVYLQMNSLKPEDTAVYYCAAEDQYGYDYWGQGTQVTVSS    high polyreactivity

Dear reader, for each entry below, please note its polyreactivity (PSR sort gate).
1. QVQLVESGGGLDQAGGSLRLSCAAYGVPSLTMNMGWYRQAPGKERELFATIYSGGSTYYADSVKWRFTISRDNAKNTVYLQMNRLKPEDTAVYYCAARQSYYYSRSYIRGDYWGQGTQVTVSS
2. QVQLVESGGGLVQAGGSLRLSCAASGITFNYYVMGWYRQAPGKERELVAAIRRGGSTNYADSVKGRFTISRDNAKNPVYLQMNSLKPEDTAVYYCAARTYRGLAYDYWGQGTQVTVSS
3. QVQLVESGGGLVQAGGSLRLSCAASGSTFYYYAMGWYRQAPGKEREFVASISSRGTSTYYADSVKGPFTISRDNAKNTVYLQMNSLKPEDTAVYYCAARGWGPTRAYDYWGQGTQVTVSS
4. QVQLVESGGGLVQAGGSLRLSCAPSGRTFVDYDMGWYRQAPGKERELVADINSGGSTYYADSVKGRFTISRDNAKNTVYLQMNSLKPEDTAVYYCAARYTFDRWKFGYWGQGTQVTVSS
5. QVQLVESGGGLVQAGGSLRLSCAASGRTHIYAMGWYRQAPGKERELVAGISRSGTRTYYADSVKGRFTISRDNAKNTVYLQMNSLKPEDSAVYYCNAQAYYQGYDYWGQGTQVTVSS

["high polyreactivity", "high polyreactivity", "high polyreactivity", "high polyreactivity", "high polyreactivity"]
